- assayed target: human PPAR α (Homo sapiens)
- Construct: human PPAR 167-468 (PPAR α)
- Sequence (Q07869 167-468): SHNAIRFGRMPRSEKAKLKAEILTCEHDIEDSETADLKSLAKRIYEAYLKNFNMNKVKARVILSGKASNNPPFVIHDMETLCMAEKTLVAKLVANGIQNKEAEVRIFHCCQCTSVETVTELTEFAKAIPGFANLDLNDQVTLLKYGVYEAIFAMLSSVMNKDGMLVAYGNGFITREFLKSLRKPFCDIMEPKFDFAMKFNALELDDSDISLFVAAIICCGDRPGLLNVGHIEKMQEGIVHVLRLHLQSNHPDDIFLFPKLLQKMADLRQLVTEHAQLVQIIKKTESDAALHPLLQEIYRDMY
- method: Transcriptional activity, GAL4-PPAR LBD chimera / PLAP reporter in CV-1 cells
- condition label: GAL4-PPARα LBD, PLAP activity 24 hours after addition
outcome measure: pEC50
Friendly reminder that pEC50 comes from taking -log10 of the concentration in mol/L.

Example cases with answers are listed next.
{"compound": "COc1ccc(-c2cccc(CC(=O)O)c2)cc1CCOC(=O)Nc1ccc(C(F)(F)F)cc1 [Example 267]", "test result": 6.21}
{"compound": "COc1ccc(-c2cccc(CC(=O)O)c2)cc1CNC(=O)c1ccc(C(F)(F)F)cc1F [Example 220]", "test result": 6.12}
{"compound": "COc1ccc(-c2cccc(CC(=O)O)c2)cc1OCC(O)COc1ccc(C(C)(C)C)cc1 (stereo not shown) [Ex 365]", "test result": 5.81}
{"compound": "COc1ccc(-c2cccc(CC(=O)O)c2)cc1OCC#Cc1cccc(C(F)(F)F)c1 [Ex 375]", "test result": 6.19}
{"compound": "Cc1ccc(-c2ccccc2CNC(=O)c2sc(-c3ccc(Cl)cc3)nc2C)cc1C(=O)O [Example 257]", "test result": 7.54}

Now examine the next entry.
Please indicate pEC50 recorded for COc1ccc(-c2ccc(C)c(C(=O)O)c2)cc1CNC(=O)c1ccc(Cl)cc1Cl [Example 21]
7.35

Source: patent US7687664B2
